# System: KM12 colon
# method: NCI tumour cell line growth inhibition, 48 h; in the data active = GI50 below about 0.43 µM; inactive = the rest
// one of y for active, n for inactive, no free text

Illustrative cases are given below, each with its answer.
COc1ccc(S(=O)(=O)N(C(C)=O)c2ccccc2/C=C/c2cc[n+]([O-])cc2)cc1    y
C1=CCCC=CCC1.C[PH+](C)C.C[PH+](C)C.C[PH+](C)C.[Cl-].[Ir]    n

Query: Called result for COc1ccc2nc3cc(Cl)ccc3c(Nc3cc(CN4CCCC4)c(O)c(CN4CCCC4)c3)c2n1
Reply: n

Query: Called result for C[N+](C)=c1ccc2nc3c(cc(NCCCNc4cc5oc6cc(=[N+](C)C)ccc-6nc5c5ccccc45)c4ccccc43)oc-2c1
Reply: n

Query: Called result for CCCCn1c(=O)c(/C=C/C(=O)/C=C/c2cc3ccccc3n(CCCC)c2=O)cc2ccccc21
Reply: n

Query: Called result for CC/C(=C/c1ccc(OC)cc1OC)[N+](=O)[O-]
Reply: n

Query: Called result for CCn1c(-c2nonc2N)nc2c(N3CCCC3)nccc21
Reply: n

---

Parameter TGI: see the listing below.
# Test system: UACC-257 melanoma
# method: NCI tumour cell line growth inhibition, 48 h

Take a look at these entries with their results.
c1ccc(OC2=NC3=S(S2)SC(Oc2ccccc2)=N3)cc1    34.7 µM
Cc1nc2c(=O)n(-c3ccccc3)c(=O)n(-c3ccccc3)c2o1    > 100 µM
CC[PH+](CC)CC.[Cl][Au]    2.36 µM
CC(=N/NC(=S)N(C)C)/C(=N\NC(=S)N(C)C)c1ccccc1    4.19 µM
O=C(O)c1ccc(SSc2ccc(C(=O)O)cn2)nc1    > 100 µM

Query: // Input: C=C1C(OC(C)=O)CC(OC(C)=O)C2(C)C(OC(C)=O)C(OC(C)=O)C3=C(C)C(OC(=O)/C=C/c4ccccc4)CC(C(OC(C)=O)C12)C3(C)C (stereo unspecified) . Output its TGI only.
Reply: > 100 µM

Query: // Input: COC(=O)N/N=C(\C)CC(=O)Nc1ccc(Cl)cc1 . Output its TGI only.
Reply: > 100 µM

Query: // Input: COc1cc2cnc3c4cc(OCc5ccccc5)ccc4ccc3c2cc1OC . Output its TGI only.
Reply: > 100 µM

---

# Test system: TK-10 renal
# method: NCI tumour cell line growth inhibition, 48 h
Parameter TGI: see the listing below.

Take a look at these entries with their results.
O=c1c2cc([N+](=O)[O-])ccc2oc2nc3n(c(=O)c12)CCCS3    > 100 µM
COc1ccc([C@]23CCC4(OCC(C)(C)CO4)[C@H]4CON(O[C@H](O[C@@H]5CCCCC5C(C)(C)c5ccccc5)C2)[C@@H]43)cc1OC (stereo partly specified)    > 100 µM
NC(=O)NN=C1Cc2ccccc2C1    > 100 µM
CC1=NOC(=O)/C1=C/c1ccc2c(c1)OCO2    > 100 µM
COc1ccc(C2c3cc4c(cc3OC(Nc3ccccc3)C2C)OCO4)cc1 (stereo unspecified)    > 100 µM
CN1CCN(CCCOc2cc(O)c3c(=O)cc(-c4ccccc4)oc3c2)CC1    48.3 µM
N#C/C(C(=O)NCc1ccccc1)=C(/N)N1CCCC1    > 100 µM
CCOC(=O)C1=C(C)NC(c2ccco2)=C(C#N)C1c1cccc([N+](=O)[O-])c1 (stereo unspecified)    49.4 µM
Clc1ccc(/C(=C/c2ccccc2)Cn2ccnc2)cc1    > 100 µM
COCCNc1cncc(C(N)=O)c1    > 100 µM

Consider the additional molecule presented here.
Query: // Input: O=C1c2cc3c(cc2-c2c1c1ccc(Cl)cc1c(=O)n2CCCn1ccnc1)OCO3 . Output its TGI only.
Reply: > 100 µM

Every entry's value here was drawn from PubChem BioAssay (NCI).
